Answer each item with its documented Effect on chronotropism, ratio of activity to that of metoprolol.
- system_under_test: β1 -adrenergic receptors (Rattus norvegicus, UniProt P18090)
- Construct: from tissue; host or cells: isolated rat auricles (atria)
- Sequence (P18090 whole entry): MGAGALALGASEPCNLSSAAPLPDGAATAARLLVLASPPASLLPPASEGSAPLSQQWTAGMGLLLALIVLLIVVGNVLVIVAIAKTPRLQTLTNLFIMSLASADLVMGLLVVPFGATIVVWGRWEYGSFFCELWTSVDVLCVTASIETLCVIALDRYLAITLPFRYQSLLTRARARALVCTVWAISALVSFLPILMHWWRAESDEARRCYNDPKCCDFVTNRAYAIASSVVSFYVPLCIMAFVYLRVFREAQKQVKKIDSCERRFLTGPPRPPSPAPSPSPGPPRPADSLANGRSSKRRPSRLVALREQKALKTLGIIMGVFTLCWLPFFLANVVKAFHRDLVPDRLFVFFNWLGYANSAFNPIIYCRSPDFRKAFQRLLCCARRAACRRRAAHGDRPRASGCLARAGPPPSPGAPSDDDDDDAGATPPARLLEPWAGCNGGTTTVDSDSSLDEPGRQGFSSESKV
- procedure_details: Studies on isolated organs: antagonism of isoprenaline-induced tachycardia and increase in contractile force in isolated rat auricles (pA2)
- Set-up: species or system rats
- test_settings: isoprenaline tachycardia, metoprolol = 1.0
// return just the number, without any unit appended

[ask] Which Effect on chronotropism, ratio of activity to that of metoprolol is reported for this molecule? CC(C)NCC(O)COc1ccc(CCCOCC2CCC2)cc1 (stereo not drawn) [SL E.061]
[reply] 0.2

[ask] Input CC(C)(C)NCC(O)COc1ccc(OCC2CC2)cc1 (stereo not drawn) [SL D.231]
[reply] 0.8

[ask] Input CC(C)NCC(O)COc1ccc(OCCSCC2CC2)cc1 (stereo not drawn) [SL D.299]
[reply] 1.3

[ask] Input CC(=O)NCCNCC(O)COc1ccc(CCOCC2CCC2)cc1 (stereo not drawn) [SL E.025]
[reply] 0.6

[ask] Input CC(C)NCC(O)COc1ccc(CCS(=O)(=O)CC2CCC2)cc1 (stereo not drawn) [SL E.060]
[reply] 1.9

[ask] Input CC(C)NCC(O)COc1ccc(CCSCC2CCC2)cc1 (stereo not drawn) [SL D.056]
[reply] 0.3

Data provenance: patent US4252984A
